# studySystem: Salicylate synthase (Mycobacterium tuberculosis (strain CDC 1551 / Oshkosh)) (UniProt P9WFX0)
# Sequence (P9WFX0 whole entry, looked up): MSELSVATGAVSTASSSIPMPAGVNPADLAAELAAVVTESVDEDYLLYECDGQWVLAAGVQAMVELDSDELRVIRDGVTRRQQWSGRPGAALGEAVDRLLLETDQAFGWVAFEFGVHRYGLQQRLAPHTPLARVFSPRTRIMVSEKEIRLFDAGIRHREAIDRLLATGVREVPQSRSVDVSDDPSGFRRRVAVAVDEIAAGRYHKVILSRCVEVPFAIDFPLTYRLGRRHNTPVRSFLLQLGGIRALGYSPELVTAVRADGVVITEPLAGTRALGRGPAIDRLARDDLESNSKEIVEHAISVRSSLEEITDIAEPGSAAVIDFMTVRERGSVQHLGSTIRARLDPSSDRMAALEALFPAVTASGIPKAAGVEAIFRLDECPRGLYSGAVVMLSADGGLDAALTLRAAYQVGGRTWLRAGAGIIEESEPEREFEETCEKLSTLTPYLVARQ
# procedureText: inhibitors of M. tuberculosis MbtI – biochemical, fluorescence intensity, primary screen (AID 493033)
# conditionDetails: purified MbtI enzyme, fluorescence intensity read-out, active compounds read high, concentration not given here
Screen size: about 100,000 compounds; about 930 (0.93%) were called active. Shown is part of a subset that was picked to be rich in actives.
For each of the compounds below, state its inhibition.
Numbers only, in %.

S=c1[nH]nc(Nc2ccccc2)s1
99.7

Fill in inhibition for each of the 6 compounds listed.
1. Cc1cc2ncn(-c3ccc(S(=O)(=O)N4CCCC4)cn3)c2cc1C
2. Cc1nn2c(=O)/c(=C/c3ccccc3)sc2nc1=O
3. CCc1c(C)sc2nc(CC(=O)N3CCOCC3)[nH]c(=O)c12
4. CCc1nc2cccnc2n1-c1ccc(CC(=O)NCCN2CCOCC2)cc1
5. S=c1[nH]nc(NCCc2ccccc2)s1
6. c1ccc(Nc2nncs2)cc1

1: 35.2; 2: -1.65; 3: -33.3; 4: 2.4; 5: 86.7; 6: 12.9

====

# studySystem: Salicylate synthase (Mycobacterium tuberculosis (strain CDC 1551 / Oshkosh))
# procedureText: inhibitors of M. tuberculosis MbtI – biochemical, fluorescence intensity, primary screen (AID 493033)
# conditionDetails: purified MbtI enzyme, fluorescence intensity read-out, active compounds read high, concentration not given here
About 930 (0.93%) of roughly 100,000 compounds were called active. The list comes from a sample in which actives are over-represented; it also holds close analogues and randomly drawn compounds.
Would you kindly list inhibition for each of these compounds?
Answers are plain numbers, in %.

O=C(CSc1ccc2ccccc2c1)N1CCN(C(=O)c2ccco2)CC1
-5.25

State the recorded inhibition for every item in the following list.
1. N#CC(C#N)=CNCCc1ccncc1
2. CC(C)Sc1n[nH]c(=S)n1N
3. C/C(=N/NC(=O)CCc1ccccc1)C1CC1

-4.8
98.2
-4.85

Field: inhibition. Fill in for each record below.
1. COc1ccc(Cc2nnc(SC)[nH]c2=O)cc1
2. N#C/C(=C\c1cc2ccccc2nc1N1CCOCC1)C(=O)Nc1ccc2c(c1)OCCO2

[10.6, 12]

# return inhibition for each item in the list
1. COc1cc(C#N)ccc1Oc1nc(CN2CCOCC2)nc2scc(-c3cccs3)c12
2. O=C(NC1=NCCS1)c1ccccn1
3. Oc1ccc(CNc2ccccc2O)cc1
4. Cc1cc(N2CCN(c3ccccc3)CC2)n2c(nc3ccccc32)c1C#N

1. 18.1
2. -4.65
3. 92
4. 4.55

====

# studySystem: Salicylate synthase (Mycobacterium tuberculosis (strain CDC 1551 / Oshkosh))
# procedureText: inhibitors of M. tuberculosis MbtI – biochemical, fluorescence intensity, primary screen (AID 493033)
# conditionDetails: purified MbtI enzyme, fluorescence intensity read-out, active compounds read high, concentration not given here
Out of some 100,000 compounds screened, about 930 (0.93%) were called active. For the sample, actives were picked, then their nearest neighbours and some compounds at random.
Label scheme for inhibition: lower than 10% is 0, 10% and above is 1.

CN(C(=O)CSc1cccc[n+]1[O-])C1CCCCC1
0

Please indicate if the recorded inhibition for Oc1c(C(Nc2ccccn2)c2cccnc2)ccc2cccnc12 (centres undefined) meets or exceeds 10%.
1

Is the recorded value of inhibition equal to or greater than 10% for this molecule? CC(C(=O)N1CCOCC1)C1SC(=O)NC1=O (centres undefined)
0

Answer whether inhibition of COc1ccc(OC)c(NC(=O)CC(Cc2ccccc2OC)C(=O)O)c1 (centres undefined) is greater than or equal to 10%.
0

Does the molecule CCN(Cc1nc(-c2ccc(OC)c(OC)c2)no1)C(=O)CCC1CCCCC1 have recorded inhibition that is 10% or more?
0

====

# studySystem: Salicylate synthase (Mycobacterium tuberculosis (strain CDC 1551 / Oshkosh)) (UniProt P9WFX0)
# procedureText: inhibitors of M. tuberculosis MbtI – biochemical, fluorescence intensity, primary screen (AID 493033)
# conditionDetails: purified MbtI enzyme, fluorescence intensity read-out, concentration not given here
The campaign covered roughly 100,000 compounds. About 930 (0.93%) were called active. Cut-off read from the data, not from the text of the source: active = inhibition mostly above about 56% (no sharp cut-off); inactive = mostly below about 77%. The list comes from a sample in which actives are over-represented; it also holds close analogues and randomly drawn compounds.
Parameter call: string, one of 1 for active, -1 for inactive

CCn1c(=O)cc(SCC(=O)NC2CCCCC2)c2ccccc21
-1
O=C(CSc1ccc(Cl)cc1)N1CCc2ccccc21
-1
Cc1occc1-c1nnc2sc(Cc3cccc4ccccc34)nn12
-1

Hi, sorry to bother you, what did the test record for CC(=O)OC1=C(Sc2ccc(Cl)cc2)C(=O)CCC1 ?
1

Tell me the recorded outcome of this test for COCCCn1cc(C(=O)c2cc(F)ccc2O)cc(C#N)c1=O .
-1

What outcome does the record of this test show for CC1(C)CC(=O)C(Sc2ccc(Cl)cc2)=C(N2CCOCC2)C1 ?
-1

====

Please respond with reported inhibition for every item in the list.
# studySystem: Salicylate synthase (Mycobacterium tuberculosis (strain CDC 1551 / Oshkosh)) (UniProt P9WFX0)
# procedureText: inhibitors of M. tuberculosis MbtI – biochemical, fluorescence intensity, primary screen (AID 493033)
# conditionDetails: purified MbtI enzyme, fluorescence intensity read-out, active compounds read high, concentration not given here
In all, about 100,000 compounds went through this assay and about 930 (0.93%) were called active. What follows is part of a selection rich in actives, with near analogues and random picks from the rest.
One number for each entry, in %.

Examples with their reported inhibition follow.
CSc1ncnc2sc(-c3ccccc3)cc12
-44.5
COC(=O)c1ccc(N)cc1
16.6
O=C(O)C1CCC(CNCc2cccc(Br)c2)CC1 (configuration not stated)
-9.65

For every record below, what is its inhibition?
1. O=c1cc(-c2ccccc2)sc2ccc(Cl)cc12
2. CCn1c(O)c(/C=N/N=C2/C(=O)N(C)c3ccccc32)c(=O)n(CC)c1=S

[-0.1, 7.05]

Please look at the items below and tell me inhibition for each one, in order.
1. COc1ccc(-c2nc(CS(=O)(=O)c3ccc(F)cc3)no2)cc1OC
2. COc1ccccc1C(=O)Nc1ccccc1N1CCN(C)CC1

1. -17
2. -4.85

====

# studySystem: Salicylate synthase (Mycobacterium tuberculosis (strain CDC 1551 / Oshkosh))
# procedureText: inhibitors of M. tuberculosis MbtI – biochemical, fluorescence intensity, primary screen (AID 493033)
# conditionDetails: purified MbtI enzyme, fluorescence intensity read-out, active compounds read high, concentration not given here
Out of some 100,000 compounds screened, about 930 (0.93%) were called active. This is one part of a sample in which actives are shown more often than they occur.
measuredProperty: inhibition (%)
One number for each entry, in %.

Guide cases for inhibition, answers given:
N#Cc1c(-c2c(O)[nH]c3ccccc23)c2c(-c3ccncc3)[nH]nc2oc1=N
-1.15
S=C(c1ccc(-c2ccccc2)o1)N1CCCCC1
102
CC1CCCCC1NC(=O)COc1ccc(C#N)cc1 (stereo not drawn)
-7.1
CCOC(=O)c1cc(-c2ccccc2)no1
-8.95
O=C(c1ccco1)N1CCCCCCC1
-14.8

Please give inhibition, item by item, for the list that follows.
1. COc1ccc(-c2nnc(SCC(=O)NC3CCCc4ccccc43)o2)cc1OC (stereo not drawn)
2. CCOC(=O)CSc1ccccn1
3. COc1ccc(OC)c(NC(=O)CS)c1

1. -3.65
2. 81.9
3. 97.5

====

# studySystem: Salicylate synthase (Mycobacterium tuberculosis (strain CDC 1551 / Oshkosh)) (UniProt P9WFX0)
# procedureText: inhibitors of M. tuberculosis MbtI – biochemical, fluorescence intensity, primary screen (AID 493033)
# conditionDetails: purified MbtI enzyme, fluorescence intensity read-out, concentration not given here
The whole screen tested about 100,000 compounds, of which about 930 (0.93%) were called active. Cut-off read from the data, not from the text of the source: active = inhibition mostly above about 56% (no sharp cut-off); inactive = mostly below about 77%. The entries come from a sample that favours actives as a whole.
Respond only with the outcome that fits, drawn from active, inactive

Reference set, count: 4
CC1=C(C(=O)OC2CCCC2)C(c2cc3c(cc2Cl)OCO3)C2=C(CCCC2=O)N1 (stereo not given)
inactive
CC(C)Cn1c(SCc2nnc(-c3ccccc3)o2)nnc1-c1ccccc1F
inactive
COc1cc(OC)cc(C(=O)NC(C(=O)N2CCC2)C(C)C)c1 (stereo not given)
inactive
Cc1ccc(OCc2n[nH]c(=S)n2C2CCCCC2)c2c1CCC2
active

What call does the record list for Cc1ccc(NC(=S)Nc2ccc(C)cc2)cc1 ?
active

====

# studySystem: Salicylate synthase (Mycobacterium tuberculosis (strain CDC 1551 / Oshkosh)) (UniProt P9WFX0)
# procedureText: inhibitors of M. tuberculosis MbtI – biochemical, fluorescence intensity, primary screen (AID 493033)
# conditionDetails: purified MbtI enzyme, fluorescence intensity read-out, concentration not given here
The whole screen tested about 100,000 compounds, of which about 930 (0.93%) were called active. Rule as the data show it: active = inhibition mostly above about 56% (no sharp cut-off); inactive = mostly below about 77%. For the sample, actives were picked, then their nearest neighbours and some compounds at random.
Your answer must be one of the following: t = active, f = inactive

Can you look up the reported call for FC(F)(F)c1cccc(-n2c(-c3ccncc3)n[nH]c2=S)c1 for me?
f

Hey, what did the test say about CC(C)n1c(-c2ccncc2)n[nH]c1=S ?
t

# outcome recorded in this test, key = CC(C)(C)c1nc(=S)[nH][nH]1
t

I would be grateful if you could indicate the recorded call for COc1ccc(C2Nn3c(C)nnc3SC2C(=O)N2CCCC2)cc1 (stereo unspecified) .
f

Fill in: this test's call for Cc1ccc2[nH]c3c(c2c1)CCCC3O (stereo unspecified) is ___
f

Check the results log: what was the call for COCCNc1oc(COc2ccc(Br)cc2)nc1C#N ?
f
